Molecular target: Urotensin-2 receptor (Rattus norvegicus)
Test: Partial agonist activity at UT2 receptor in Sprague-Dawley rat thoracic aorta ring assessed as induction of aortic contractions at 10 to 100 uM relative to KCl
Assay type: tissue-based
Active and inactive are the calls of the source. No cut-off for these calls is given here. Where a SMILES comes first, the peptide text is derived from it.
Labels: 1 for active, -1 for inactive

| molecule | cat |
| --- | --- |
| CC(C)[C@H](NC(=O)[C@@H]1CSSC[C@H](NC(=O)[C@H](C)N)C(=O)N[C@@H](Cc2ccccc2)C(=O)N[C@@H](Cc2c[nH]c3ccccc23)C(=O)N[C@@H](CCCCN)C(=O)N[C@@H](Cc2ccc(O)cc2)C(=O)N1)C(=O)O | 1 |
| CC(C)[C@H](NC(=O)[C@@H]1CSSC[C@H](NC(=O)[C@@H](N)CC(=O)O)C(=O)N[C@@H](Cc2ccccc2)C(=O)N[C@@H](Cc2c[nH]c3ccccc23)C(=O)NN(CCCCN)S(=O)(=O)N[C@@H](Cc2ccc(O)cc2)C(=O)N1)C(=O)O (HELM PEPTIDE1{D.C.F.W.[NCCCCN(N[*:1])S(=O)(=O)N[C@@H](Cc1ccc(O)cc1)C(=O)[*:2]].C.V}$PEPTIDE1,PEPTIDE1,2:R3-6:R3$$$V2.0) | -1 |
| CC(C)[C@H](NC(=O)[C@@H]1CSSC[C@H](NC(=O)[C@@H](N)CC(=O)O)C(=O)N[C@@H](Cc2ccccc2)C(=O)N[C@@H](Cc2c[nH]c3ccccc23)C(=O)NN(CCCCN(C)C)S(=O)(=O)N[C@@H](Cc2ccc(O)cc2)C(=O)N1)C(=O)O (HELM PEPTIDE1{D.C.F.W.[CN(C)CCCCN(N[*:1])S(=O)(=O)N[C@@H](Cc1ccc(O)cc1)C(=O)[*:2]].C.V}$PEPTIDE1,PEPTIDE1,2:R3-6:R3$$$V2.0) | -1 |
| CC(C)[C@H](NC(=O)[C@@H]1CSSC[C@H](NC(=O)[C@H](CC(=O)O)NC(=O)[C@@H]2CCCN2C(=O)[C@@H](NC(=O)[C@@H](N)CCC(=O)O)[C@@H](C)O)C(=O)N[C@@H](Cc2ccccc2)C(=O)N[C@@H](Cc2c[nH]c3ccccc23)C(=O)N[C@@H](CCCCN)C(=O)N[C@@H](Cc2ccc(O)cc2)C(=O)N1)C(=O)O | 1 |
